Molecular target: PLK1 (Homo sapiens)
Construct: endogenous in cells
Sequence (P53350 whole entry): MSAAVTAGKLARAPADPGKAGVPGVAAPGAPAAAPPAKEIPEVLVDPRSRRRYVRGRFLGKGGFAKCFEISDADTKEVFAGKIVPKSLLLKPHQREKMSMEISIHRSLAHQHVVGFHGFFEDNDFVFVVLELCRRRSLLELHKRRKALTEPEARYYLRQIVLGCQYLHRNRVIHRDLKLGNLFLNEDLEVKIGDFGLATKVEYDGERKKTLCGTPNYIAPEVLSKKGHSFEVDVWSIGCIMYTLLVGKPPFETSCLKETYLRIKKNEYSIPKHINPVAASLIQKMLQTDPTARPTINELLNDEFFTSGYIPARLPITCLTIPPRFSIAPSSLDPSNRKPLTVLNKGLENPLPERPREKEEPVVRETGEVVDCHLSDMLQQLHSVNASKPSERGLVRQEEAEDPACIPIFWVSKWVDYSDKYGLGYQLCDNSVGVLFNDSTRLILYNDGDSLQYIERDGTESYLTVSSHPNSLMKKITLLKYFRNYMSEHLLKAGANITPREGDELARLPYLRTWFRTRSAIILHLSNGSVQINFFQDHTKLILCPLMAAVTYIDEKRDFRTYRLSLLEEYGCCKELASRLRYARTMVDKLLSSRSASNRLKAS
Assay: Western blot, protein degradation (DC50)
Assay type: cell-based
Settings: 6 h; read-out: PLK1 DC50 (6 h)
Procedure: Cells were treated with the compound for a period of time, after that the cells were collected by centrifugation. After washing with PBS, the cells were lysed by adding RIPA buffer; the cell lysate were added to the loading buffer and then appropriate volume were taken and slowly added to the corresponding wells of the gel plate, and run the SDS-PAGE gel (4%-12%). […] The intensity of protein bands was analyzed quantitatively using ImageJ software.
Measured DC50 accompanies every entry in the list below.

Example cases with answers are listed next.
| compound | DC50 |
| --- | --- |
| CC[C@@H]1C(=O)N(C)c2cnc(Nc3ccc(C(=O)NCCOCCOCCOCCOCCNCC#Cc4cccc5c4CN(C4CCC(=O)NC4=O)C5=O)cc3OC)nc2N1C1CCCC1 (stereo partly drawn) | 10 to 100 nM |
| O=C1CCC(N2Cc3c(NC(=O)CCOCCOCCOCCNC(=O)[C@]4(Cc5cccc(Nc6nccs6)n5)CC[C@@H](Oc5cccc(Cl)c5F)CC4)cccc3C2=O)C(=O)N1 (stereo partly drawn) | < 10 nM |

[Q] // query DC50 value for entry CC[C@@H]1C(=O)N(C)c2cnc(Nc3ccc(C(=O)NCCOCCOCCOCCNCCC(=O)Nc4cccc5c4CN(C4CCC(=O)NC4=O)C5=O)cc3OC)nc2N1C1CCCC1 (stereo partly drawn)
[A] 100 to 1000 nM

====

Measured DC50 accompanies every entry in the list below.
molecular target: BRD4 (Homo sapiens); construct: endogenous in cells; test: Western blot, protein degradation (DC50); type: cell-based; conditions: 24 h; read-out: BRD4 DC50 (nM) (24 h)

Example cases with answers are listed next.
| compound | observable | reading |
| --- | --- | --- |
| CC[C@@H]1C(=O)N(C)c2cnc(Nc3ccc(C(=O)NCc4cn(CCNCCOCC(=O)Nc5cccc6c5CN(C5CCC(=O)NC5=O)C6=O)nn4)cc3OC)nc2N1Cc1ccc(Cl)s1 (stereo partly shown) [UB-180720] | DC50 | < 10 nM |
| CC[C@@H]1C(=O)N(C)c2cnc(Nc3ccc(C(=O)NCc4cn(CCCN(CCC(=O)Nc5cccc6c5CN(C5CCC(=O)NC5=O)C6=O)C(=O)OCc5ccc(NC(=O)[C@H](CCCNC(N)=O)NC(=O)[C@@H](NC(=O)CCCCCN6C(=O)C=CC6=O)C(C)C)cc5)nn4)cc3OC)nc2N1C1CCCC1 (stereo partly shown) [UB-180717] | DC50 | 10 to 100 nM |

[Q] // query DC50 value for entry CC[C@@H]1C(=O)N(C)c2cnc(Nc3ccc(C(=O)NCc4cn(CCNCCOCC(=O)Nc5cccc6c5CN(C5CCC(=O)NC5=O)C6=O)nn4)cc3OC)nc2N1C1CCCC1 (stereo partly shown) [UB-180719]
[A] < 10 nM

[Q] // query DC50 value for entry CC[C@@H]1C(=O)N(C)c2cnc(Nc3ccc(C(=O)NC4CCN(CCOCCNCC(=O)Nc5cccc6c5CN(C5CCC(=O)NC5=O)C6=O)CC4)cc3OC)nc2N1Cc1cnc(C)s1 (stereo partly shown) [UB-180745]
[A] < 10 nM

====

target: BRD4 (Homo sapiens, UniProt O60885); construct: endogenous in cells; experiment: Western blot, protein degradation (DC50); format: cell-based; conditions: 6 h; read-out: BRD4 DC50 (6 h)
Measured DC50 accompanies every entry in the list below.

Example cases with answers are listed next.
| compound | reading |
| --- | --- |
| CC[C@@H]1C(=O)N(C)c2cnc(Nc3ccc(C(=O)NCCCNCCCCCCCC(=O)Nc4cccc5c4CN(C4CCC(=O)NC4=O)C5=O)cc3OC)nc2N1C1CCCC1 (stereo partly shown) | < 10 nM |
| CC[C@@H]1c2c(C#N)ncn2-c2cnc(Nc3ccc(C(=O)NCCOCCOCCOCC(=O)Nc4cccc5c4C(=O)N(C4CCC(=O)NC4=O)C5=O)cc3OC)nc2N1Cc1ccc(Br)cc1 (stereo partly shown) | > 1000 nM |
| CC[C@@H]1C(=O)N(C)c2cnc(Nc3ccc(C(=O)NCCOCCOCCOCCC(=O)N[C@H](C(=O)N4C[C@H](O)C[C@H]4C(=O)NCc4ccc(-c5scnc5C)cc4)C(C)(C)C)cc3OC)nc2N1Cc1ccc(Br)cc1 | > 1000 nM |
| CC[C@@H]1C(=O)N(C)c2cnc(Nc3ccc(C(=O)NCCOCCOCCOCCNCC#Cc4cccc5c4CN(C4CCC(=O)NC4=O)C5=O)cc3OC)nc2N1C1CCCC1 (stereo partly shown) | 10 to 100 nM |
| CC[C@@H]1C(=O)N(C)c2cnc(Nc3ccc(C(=O)NCCOCCOCCOCCNCCC(=O)Nc4cccc5c4CN(C4CCC(=O)NC4=O)C5=O)cc3OC)nc2N1C1CCCC1 (stereo partly shown) | < 10 nM |

[Q] // query DC50 value for entry CC[C@@H]1C(=O)N(C)c2cnc(Nc3ccc(C(=O)NCCOCCOCCNCC#Cc4cccc5c4CN(C4CCC(=O)NC4=O)C5=O)cc3OC)nc2N1C1CCCC1 (stereo partly shown)
[A] < 10 nM

[Q] // query DC50 value for entry CC[C@@H]1C(=O)N(C)c2cnc(Nc3ccc(C(=O)NCCOCCOCCOCCNCCCC(=O)Nc4cccc5c4CN(C4CCC(=O)NC4=O)C5=O)cc3OC)nc2N1C1CCCC1 (stereo partly shown)
[A] 10 to 100 nM

[Q] // query DC50 value for entry CC[C@@H]1C(=O)N(C)c2cnc(Nc3ccc(C(=O)NCCCNc4cccc5c4C(=O)N(C4CCC(=O)NC4=O)C5=O)cc3OC)nc2N1C1CCCC1 (stereo partly shown)
[A] 100 to 1000 nM

[Q] // query DC50 value for entry CC[C@@H]1C(=O)N(C)c2cnc(Nc3ccc(C(=O)NCCOCCOCCOCCOCCNCC#Cc4cccc5c4CN(C4CCC(=O)NC4=O)C5=O)cc3OC)nc2N1C1CCCC1 (stereo partly shown)
[A] 10 to 100 nM

[Q] // query DC50 value for entry `CC[C@@H]1C(=O)N(C)c2cnc(Nc3ccc(C(=O)NCCOCCOCCOCC(=O)N[C@H](C(=O)N4C[C@H](O)C[C@H]4C(=O)NCc4ccc(-c5scnc5C)cc4)C(C)(C)C)cc3OC)nc2N1Cc1ccc(Br)cc1`
[A] > 1000 nM
